System: NCI-H23 lung
assaySummary: NCI-60 one-dose screen, 48 h (100 = growth as untreated, 0 = no growth, -100 = all killed)
conditionSet: 10 µM unless noted
The panel holds about 83,000 compounds, 20% with a hit somewhere; the sample as a whole holds those more often.
Mark yes (1) only when growth stays strictly below 90%. Values equal to the cut-off are no (0).

{"compound": "COc1ncnc2[nH]cc(CN3CCN(c4ccc(F)cc4)CC3)c12", "discreteLabel": "no (0)"}
{"compound": "COc1cccc(-c2nc3sccn3c2-c2ccnc(NCCN3CCCNS3(=O)=O)n2)c1", "discreteLabel": "no (0)"}
{"compound": "COC(=O)c1ccc2c(c1)nc(-c1cc3ccccc3[nH]c1=O)n2-c1cc(C(C)(C)C)[nH]n1", "discreteLabel": "yes (1)"}
{"compound": "CCN1C(=O)N(CC)C2C1NN=c1s/c(=C\\c3ccco3)c(=O)n12 (configuration not stated)", "discreteLabel": "yes (1)"}
{"compound": "CCNC(=O)c1ccc2c(c1)nc(-c1ccc(Cl)cc1)n2-c1cc(C(C)(C)C)[nH]n1", "discreteLabel": "yes (1)"}
{"compound": "CCN1C(=O)N(CC)C2C1NN=c1s/c(=C\\c3ccc(Br)cc3)c(=O)n12 (configuration not stated)", "discreteLabel": "yes (1)"}
{"compound": "CC(C)[C@@]12C[C@@H](OC(=O)C3CO3)[C@@](C)(O1)[C@@H]1CC[C@@H](C)[C@H]1[C@@H]2OC(=O)/C=C/c1ccccc1 (some centres not stated)", "discreteLabel": "yes (1)"}
{"compound": "C[N+](C)(C)CC(=O)N/N=C\\c1ccco1", "discreteLabel": "no (0)"}
{"compound": "CCCCCCCCCCCCCCCCCC(=O)OCCCCCCCCCCCCC", "discreteLabel": "no (0)"}
{"compound": "COc1nccc2c(Sc3ccccc3)nc(N)nc12", "discreteLabel": "no (0)"}
{"compound": "COc1ccc(/C=C/c2nc(NCCCN(C)C)c3ccccc3n2)cc1", "discreteLabel": "yes (1)"}
{"compound": "Cc1cc(-c2ccc(N=Nc3c(S(=O)(=O)O)cc4cc(S(=O)(=O)O)cc(O)c4c3O)c(C)c2)ccc1N=Nc1c(S(=O)(=O)O)cc2cc(S(=O)(=O)O)cc(O)c2c1O", "discreteLabel": "no (0)"}
{"compound": "CCOC(=O)c1cc(N)nc2ccccc12", "discreteLabel": "no (0)"}
{"compound": "COc1cc(/C=C/c2cc(/C=C/c3ccc(O)c(OC)c3)n(C(=O)c3ccccc3Br)n2)ccc1O", "discreteLabel": "yes (1)"}
{"compound": "Nc1cc(C(=O)O)cc(C(=O)O)c1", "discreteLabel": "no (0)"}
{"compound": "CCCCCCCCN(CCCCCCCC)C(=O)CCl", "discreteLabel": "yes (1)"}
{"compound": "C=CCN1C(=O)/C(=c2\\sc3n(c2=O)C2C(NN=3)N(CC)C(=O)N2CC)c2ccccc21 (configuration not stated)", "discreteLabel": "yes (1)"}
{"compound": "CCN(CC)CC(=O)Nc1c(C)cc(C(=O)NN)cc1C", "discreteLabel": "no (0)"}
{"compound": "Cc1cc(C#Cc2ccc(C(C)(C)C)cc2)ccc1-n1c(/C=C/c2c(Cl)cccc2Cl)nc2ccccc2c1=O", "discreteLabel": "no (0)"}
{"compound": "Cc1c(C(=O)Nc2ccccc2F)sc2c(=O)[nH]cnc12", "discreteLabel": "no (0)"}
{"compound": "c1coc(CNc2c3ccccc3nc3ccccc23)c1", "discreteLabel": "yes (1)"}
